This listing pairs substances with measured pEC50.
molecular target: hGIPR (Homo sapiens); assay: Functional cAMP activity in the presence of 1% HSA; format: cell-based; conditions: read-out: cAMP Rel EC50, hGIPR
Sequence (P48546 22-466): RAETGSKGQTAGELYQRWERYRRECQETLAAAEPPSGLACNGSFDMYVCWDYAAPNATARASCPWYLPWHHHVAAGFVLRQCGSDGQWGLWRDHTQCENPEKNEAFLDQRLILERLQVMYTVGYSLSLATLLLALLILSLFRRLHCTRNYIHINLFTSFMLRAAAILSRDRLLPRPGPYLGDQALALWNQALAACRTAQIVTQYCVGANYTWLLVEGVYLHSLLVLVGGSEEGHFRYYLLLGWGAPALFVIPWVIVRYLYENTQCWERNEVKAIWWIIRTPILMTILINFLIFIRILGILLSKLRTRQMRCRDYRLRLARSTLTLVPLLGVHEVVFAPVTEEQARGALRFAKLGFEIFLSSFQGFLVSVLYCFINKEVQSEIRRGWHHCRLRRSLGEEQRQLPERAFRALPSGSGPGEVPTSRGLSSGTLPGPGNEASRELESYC
Starred links: 1 amine or outer side, 2 acyl side, 3 side chain; linkers in the order of their positions; H or OH if unused. Non-standard residues stand in square brackets, D forms with d. Groups on a side chain read outwards from the residue. *: point of attachment. C20 diacid = O=C(O)CCCCCCCCCCCCCCCCCCC(=O)*; C18 diacid = O=C(O)CCCCCCCCCCCCCCCCC(=O)*; αMePhe(2-F) = C[C@](N)(Cc1ccccc1F)C(=O)O; γGlu = O=C(O)[C@H](CCC(=O)[*:2])N[*:1]; αMe4Pal = C[C@](N)(Cc1ccncc1)C(=O)O; αMeY = C[C@](N)(Cc1ccc(O)cc1)C(=O)O; 4Pal = N[C@@H](Cc1ccncc1)C(=O)O; αMeL = CC(C)C[C@](C)(N)C(=O)O; Orn = NCCC[C@H](N)C(=O)O; AEEA = NCCOCCOCC(=O)O; Aib = CC(C)(N)C(=O)O
pEC50 is a log-scale quantity: -log10 of the concentration expressed in molar.

{"columns": ["substance", "pEC50"],
 "data": [
  ["H-Y[Aib]QGTFTSDYSK[αMeL]LDKK([AEEA-γGlu-C20 diacid])AQQAFIEYLIAGGPSSGEPPPSGD-NH2 [Example 337]", 7.00],
  ["H-Y[Aib]QGT[αMePhe(2-F)]TSD[4Pal]SI[αMeL]LD[Orn]K([AEEA-γGlu-C18 diacid])AQ[αMe4Pal][Orn]FIE[αMeY]LIEGGPSSGEPPPEGT-NH2 [Example 505]", 8.68]
]}

Give pEC50 for H-Y[Aib]QGTFTSD[4Pal]SR[αMeL]LDKK([AEEA-γGlu-C18 diacid])AQ[Aib]AFIEYLIE[Aib]GPSSGAPPPSGS-NH2 [Example 802]
7.77
